meta.source: ChEMBL document CHEMBL1158555

Target: Androgen receptor (Homo sapiens)
Sequence (whole entry): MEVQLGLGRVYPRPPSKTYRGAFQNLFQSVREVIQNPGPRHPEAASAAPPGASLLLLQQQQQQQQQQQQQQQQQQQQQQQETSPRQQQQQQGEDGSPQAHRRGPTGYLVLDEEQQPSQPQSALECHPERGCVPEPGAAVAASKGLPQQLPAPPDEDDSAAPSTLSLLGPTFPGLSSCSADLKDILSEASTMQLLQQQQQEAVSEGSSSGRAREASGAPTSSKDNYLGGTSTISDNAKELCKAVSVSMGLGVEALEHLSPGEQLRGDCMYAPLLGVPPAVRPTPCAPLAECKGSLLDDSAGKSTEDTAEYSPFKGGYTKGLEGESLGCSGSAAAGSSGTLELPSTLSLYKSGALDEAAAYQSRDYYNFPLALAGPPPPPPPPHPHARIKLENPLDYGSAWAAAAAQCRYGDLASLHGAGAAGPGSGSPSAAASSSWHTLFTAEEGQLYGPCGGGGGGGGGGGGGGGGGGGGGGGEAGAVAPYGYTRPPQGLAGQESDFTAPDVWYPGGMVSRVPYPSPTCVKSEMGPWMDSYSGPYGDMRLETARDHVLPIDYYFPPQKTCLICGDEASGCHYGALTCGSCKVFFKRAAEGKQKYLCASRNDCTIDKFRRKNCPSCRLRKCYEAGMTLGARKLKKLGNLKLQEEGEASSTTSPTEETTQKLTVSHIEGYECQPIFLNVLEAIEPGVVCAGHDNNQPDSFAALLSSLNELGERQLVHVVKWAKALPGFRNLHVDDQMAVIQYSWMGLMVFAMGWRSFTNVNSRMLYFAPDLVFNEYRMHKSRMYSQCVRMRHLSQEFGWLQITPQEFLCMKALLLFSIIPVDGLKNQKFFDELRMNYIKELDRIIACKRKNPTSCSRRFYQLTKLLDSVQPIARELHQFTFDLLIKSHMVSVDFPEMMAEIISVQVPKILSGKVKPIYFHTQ
Conditions: HeLa
Description: Activity at human AR expressed in human HeLa cells after 48 hrs by stable-luciferase reporter gene assay
measured_endpoint: EC5

>>> reported("CC1(C)C(=O)N(c2ccc(C#N)c(C(F)(F)F)c2)C(=S)N1CCCC(=O)O")
"> 10 µM"
>>> reported("CC1(C)C(=O)N(c2ccc(C#N)c(C(F)(F)F)c2)C(=S)N1CCS(N)(=O)=O")
"7.2 µM"
>>> reported("CC1(C)C(=O)N(c2ccc(C#N)c(C(F)(F)F)c2)C(=S)N1CCCNS(N)(=O)=O")
"> 10 µM"
>>> reported("CC1(C)C(=O)N(c2ccc(C#N)c(C(F)(F)F)c2)C(=S)N1CCCC(N)=O")
"> 10 µM"
>>> reported("CC1(C)C(=O)N(c2ccc(C#N)c(C(F)(F)F)c2)C(=S)N1CCCNC(N)=O")
"0.35 µM"
>>> reported("COc1cc(N2C(=O)C(C)(C)N(CCCS(N)(=O)=O)C2=S)ccc1C#N")
"> 10 µM"
>>> reported("CC1(C)C(=O)N(c2ccc(C#N)c(C(F)(F)F)c2)C(=S)N1CCCCS(N)(=O)=O")
"> 10 µM"
>>> reported("Cc1cc(C#N)c(C(F)(F)F)cc1N1C(=O)C(C)(C)N(CCCS(N)(=O)=O)C1=S")
"> 10 µM"
>>> reported("CC1(C)C(=O)N(c2ccc(C#N)c(C(F)(F)F)c2)C(=S)N1CCCS(N)(=O)=O")
"> 10 µM"
